Assayed target: human sweet taste receptor (hT1R2/hT1R3) coupled to Gα15 (Homo sapiens, UniProt Q7RTX0+Q8TE23)
Construct: expressed in transfected cells
Method notes: FLIPR calcium mobilization assay, R2/R3 U2OS cells transduced with Gα15 baculovirus
Format: cell-based
Condition set: R2/R3 U2OS cells expressing Gα15; read-out: Activity in FLIPR assay pEC50 (converted)
Returns: string. Value is Fulfilled if measured EC50 is below 0.7 µM, and Not fulfilled if it is greater than or equal to it.

Line notation	Label class
COC(=O)[C@H](Cc1ccccc1)NC(=O)[C@H](CC(=O)O)NCCC(C)(C)C	Not fulfilled
CC1=CC(=O)NS(=O)(=O)O1	Not fulfilled
CCOc1ccc(NC(N)=O)cc1	Not fulfilled
COCc1cncc(-c2ccc(C(C)(C)C(=O)NCC(C)C)cc2)n1	Fulfilled

====

Assayed target: human sweet taste receptor (hT1R2/hT1R3) coupled to Gα15 (Homo sapiens, UniProt Q7RTX0+Q8TE23)
Construct: expressed in transfected cells
Sequence (Q8TE23 20-839): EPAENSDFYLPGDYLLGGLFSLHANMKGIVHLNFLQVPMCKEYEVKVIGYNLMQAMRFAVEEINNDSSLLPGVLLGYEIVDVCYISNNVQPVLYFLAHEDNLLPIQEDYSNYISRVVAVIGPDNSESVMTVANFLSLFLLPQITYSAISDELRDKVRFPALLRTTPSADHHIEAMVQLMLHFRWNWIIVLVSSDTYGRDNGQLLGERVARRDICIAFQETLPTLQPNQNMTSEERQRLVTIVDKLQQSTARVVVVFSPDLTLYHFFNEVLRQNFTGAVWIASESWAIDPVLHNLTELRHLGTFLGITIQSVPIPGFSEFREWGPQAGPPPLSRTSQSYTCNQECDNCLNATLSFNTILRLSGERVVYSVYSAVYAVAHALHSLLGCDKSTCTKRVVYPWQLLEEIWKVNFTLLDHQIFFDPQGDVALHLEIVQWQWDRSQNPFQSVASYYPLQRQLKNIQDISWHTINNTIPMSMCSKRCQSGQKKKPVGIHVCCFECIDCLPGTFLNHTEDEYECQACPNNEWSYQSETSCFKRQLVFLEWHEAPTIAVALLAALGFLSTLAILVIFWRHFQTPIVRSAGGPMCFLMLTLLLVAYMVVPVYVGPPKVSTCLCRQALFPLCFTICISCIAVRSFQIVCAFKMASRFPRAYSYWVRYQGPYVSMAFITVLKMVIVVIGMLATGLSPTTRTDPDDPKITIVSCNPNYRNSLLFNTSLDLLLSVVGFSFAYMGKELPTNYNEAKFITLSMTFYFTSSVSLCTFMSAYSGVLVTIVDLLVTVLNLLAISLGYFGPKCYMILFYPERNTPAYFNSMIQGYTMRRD
Sequence (Q7RTX0 21-852): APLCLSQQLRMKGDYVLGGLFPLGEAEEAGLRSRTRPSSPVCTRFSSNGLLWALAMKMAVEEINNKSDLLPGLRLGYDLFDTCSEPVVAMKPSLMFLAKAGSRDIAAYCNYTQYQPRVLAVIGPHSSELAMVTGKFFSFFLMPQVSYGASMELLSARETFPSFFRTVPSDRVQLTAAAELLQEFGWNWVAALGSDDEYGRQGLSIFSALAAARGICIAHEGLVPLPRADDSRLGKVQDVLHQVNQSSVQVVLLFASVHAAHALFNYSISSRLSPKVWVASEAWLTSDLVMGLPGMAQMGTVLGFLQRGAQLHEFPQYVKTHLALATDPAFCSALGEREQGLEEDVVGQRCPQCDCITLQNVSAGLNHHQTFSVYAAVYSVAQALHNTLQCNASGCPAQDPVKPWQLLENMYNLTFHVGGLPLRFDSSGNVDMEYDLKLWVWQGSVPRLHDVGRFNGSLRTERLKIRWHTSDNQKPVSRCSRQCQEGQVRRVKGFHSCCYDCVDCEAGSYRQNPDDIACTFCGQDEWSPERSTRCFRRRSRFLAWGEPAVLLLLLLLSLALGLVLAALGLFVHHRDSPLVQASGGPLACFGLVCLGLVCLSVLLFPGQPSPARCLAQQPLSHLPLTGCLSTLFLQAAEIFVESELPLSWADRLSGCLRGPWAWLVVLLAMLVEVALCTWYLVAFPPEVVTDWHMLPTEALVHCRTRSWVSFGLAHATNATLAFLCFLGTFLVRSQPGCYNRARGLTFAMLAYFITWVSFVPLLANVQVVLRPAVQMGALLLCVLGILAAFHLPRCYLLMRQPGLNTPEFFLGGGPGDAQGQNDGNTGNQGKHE
Method notes: FLIPR calcium mobilization assay, R2/R3 U2OS cells transduced with Gα15 baculovirus
Type: cell-based
Condition set: FLIPR-Gα15; operational model, logR minus sucralose logR
Residues, ends and D or L forms follow the SMILES beside them.
// reported ΔlogR FLIPR Mean per item
Measured parameter: ΔlogR FLIPR Mean

Compound	Measured parameter	Endpoint result
COC(=O)[C@H](Cc1ccccc1)NC(=O)[C@@H](N)CC(=O)O [Aspartame] (H-Asp-Phe-OMe)	ΔlogR FLIPR Mean	−0.74
COC(=O)[C@H](Cc1ccccc1)NC(=O)[C@H](CC(=O)O)NCCC(C)(C)C	ΔlogR FLIPR Mean	1.65
C[C@H](NC(=Nc1ccc(C#N)cc1)NCC(=O)O)c1ccccc1	ΔlogR FLIPR Mean	1.45
O=C1NS(=O)(=O)c2ccccc21	ΔlogR FLIPR Mean	−0.47
COC(=O)[C@H](Cc1ccccc1)NC(=O)[C@H](CC(=O)O)NC(=O)Nc1ccc(C#N)cc1	ΔlogR FLIPR Mean	1.17
CCOc1ccc(NC(N)=O)cc1	ΔlogR FLIPR Mean	0.38
